protocol_description: yeast display, Sf9 membrane polyspecificity reagent, FACS + sequencing; frameworks hold sequencing errors
quantity_measured: polyreactivity (PSR sort gate)

seq_text=QVQLVESGGGLVQAGGSLRLSCAASGSTFSGKAMGWYRQAPGKERELVAAITSSGGSTYYADSVKGRFTISRDNAKNTVYLQMNSLKPEDTAVYYCAAKSRRTRRSYYWGQGTQVTVSS quantity_measured="polyreactivity (PSR sort gate)" value_reported="high polyreactivity"
seq_text=QVQLVESGGGLVQAGGSLRLSCAASGSTFGFYAMGWYRPAPGKERELVAAISWSTTSTYYADSVKGRFTISRDNAKNTVYLQMNSLKPEDTAVYYCAAEEWYLWYYYWGQGTQVTVSS quantity_measured="polyreactivity (PSR sort gate)" value_reported="high polyreactivity"
seq_text=QVQLVESGGCLVQAGGSLRLSSAASGFTFDKYAMGWYRQAPGKEMELVAAISGSGGTTYYADSVKGRFTISRDNAKNTVYLQMNSLKPEDTAVYYCATRLYSIYSYGYWGQGTQVTVSS quantity_measured="polyreactivity (PSR sort gate)" value_reported="high polyreactivity"
seq_text=QVQLVESGGGLVQAGGSLRLSCAASGSTFQSYTMGWYRPAPGKERELVAAISSSGGRTYYADSVKGRFTISRDNAKHTVYLQMNSLKPEDTAVYYCAAVTQSWRGATWYDYWGQGTQVTVSS quantity_measured="polyreactivity (PSR sort gate)" value_reported="high polyreactivity"

###

protocol_description: yeast display, Sf9 membrane polyspecificity reagent, FACS + sequencing; frameworks hold sequencing errors
quantity_measured: polyreactivity (PSR sort gate)

seq_text=QVQLVESGGGLGQAGGSLRLSCAASGSIFQPYAMGGYRQAPGKERELVAAISSSGGSTTYADSVKGRFTISRDNAKNTVYLQMNSLKPEDTAVYYCAAEYDGPYTWVDYFYHYGYWGQGTQVTVSS value_reported="low polyreactivity"
seq_text=QVQLVESGGGLVQAGGSLRLSCAASGSTFRFYTMGWYRQAPGKERELVAAISGSGGSTYYADSVKGRFTISRDNAKNTVYLQMNSLKPEDTAVYYCAADKSRYASHRGYWGQGTQVTVSS value_reported="low polyreactivity"

###

protocol_description: yeast display, Sf9 membrane polyspecificity reagent, FACS + sequencing; frameworks hold sequencing errors
quantity_measured: polyreactivity (PSR sort gate)

seq_text=QVQLVESGGGLVQAGGSLRLSCAASGSIFAGNTMGWSRQAPGKEREFVASIRSSSGSTYYADSVKGRFTISRDNAKNTVYLQMNSLKPEDTAVYYCARVAPASGVRWYYYWGQGTQVTVSS quantity_measured="polyreactivity (PSR sort gate)" value_reported="high polyreactivity"
seq_text=QVQLVESGGGLVQAGGSLRLSCAASGRTFKYYAMGWYRQAPGKERELVAAITTGGSTHYADSVKGRFTISRDNAKNTVYLQMNSLKPEDTAVYYCAAGPFARYDYWGQGTEVTVSS quantity_measured="polyreactivity (PSR sort gate)" value_reported="low polyreactivity"
seq_text=QVQLVESGGGLVQAGGSLRLSCAASGFNFTAYAMGWYRQAPGKERELVAAISSGGSTNYADSVKGRFTISRDNAKNSVYLQMNSLKPEDTAVYYCAALLRGIEYDYWGQGTQVTVSS quantity_measured="polyreactivity (PSR sort gate)" value_reported="high polyreactivity"
seq_text=QVKLVESGGGLVQAGVSLRLSCAASGRIFVFYAMGWYRQAPGKERELVAAITASSTRTYYADSVKGRFTISRAHAKNTVYLQMNSLKPEDTAVYYCARDIRQYILYGRGDYWGQGTQVTVSS quantity_measured="polyreactivity (PSR sort gate)" value_reported="low polyreactivity"
seq_text=QVQLVESGRGLVEAGGSLRLSCAASGSTFWAYVMGWSRQAPGKERELVAAITSSGGSTYYADSVKGRFTISRDYAKNTVYLQMNILKPEDTAVYYCAADYFYPYYGAMDYWGQGTQVTVSS quantity_measured="polyreactivity (PSR sort gate)" value_reported="low polyreactivity"
seq_text=QVQLVESGGGLVQAGGSLRLSCAAYGRIFYAYAMGWYRQAPGKERELVAAITNGGGTTYYADSVKGRFTISRDNAKNTVYLQMNSLKPEDTAVYYCNAVRYTIAHGFYYVPEDYWGQGTQVTVSS quantity_measured="polyreactivity (PSR sort gate)" value_reported="low polyreactivity"
seq_text=QVQLVESGGGLVQAGGSLRLSCAASGSIFYLNAMGWYRMAPGKERELVATISNGGSTNYADSVKGRFTISRDNAKNTVYLQMNSLKPEDTAVYYCAAASGGTVVGEGDYWGQGTQVTVSS quantity_measured="polyreactivity (PSR sort gate)" value_reported="low polyreactivity"
seq_text=QVQLVESGGGLVQAGGSLRLSCAASGSIFDPYAMGWYIQAPGKERELDAAITASGSSTYYADSVKGRFTISRDNAKNTVYLQMNSLKPEDTAVYYCAADRANWEYLLSWLGYDYWGQGTQVTVSS quantity_measured="polyreactivity (PSR sort gate)" value_reported="low polyreactivity"
seq_text=QVQLVESGGGLVQAGGSLRLSCAASGSIFQDYAMGWYRQAPGKERELVAAITSDGSTYYADSVKGRFTISRDNAKNTVYLQMNSLKPEDTAVYYCATDKLYGRTVRMDYWGQGTQVTVSS quantity_measured="polyreactivity (PSR sort gate)" value_reported="low polyreactivity"
seq_text=QVQLVESGGGLVQAGGSLRLSCAASGSTFPRNAMGWYRQAPGKERELVATISTSGGSTYYADSVKGRFTISRDNAKNTVYLQMNSLKPEDTPVYYCAAVFWFRSLSGYIYDYWGQGTQVSVSS quantity_measured="polyreactivity (PSR sort gate)" value_reported="low polyreactivity"
seq_text=QVQLVESGGGLVQAGGSLRLSCAASGRIFPKYAMGGDRQAPGTERPLVAAISSSGGSKYYADSVKGRFTISRDNAKNTVYFQMNSLKPEDTAVYYCNVDKATRDRYPGFDYWGQGTQVTVSS quantity_measured="polyreactivity (PSR sort gate)" value_reported="high polyreactivity"
seq_text=QVQLVESGGGLVQAGGSLRLSCAASGITIVNYVMGWYRQAPGKERELVAAISIGGGTYYADSVKGRFTISRDNAKNTVYLQMNSLKPEDTAVYYCNARSEVSYWWGGYWGQGTQVTVSS quantity_measured="polyreactivity (PSR sort gate)" value_reported="low polyreactivity"
seq_text=QVQLVESGGGLVQAGGSLRLSCAASGSIFRAYAMGWYRQAPGKERELVAGITKSGGSTYYADSVKGRFTISRDHAKNTVYLQMNSLKPEDTAVYYCAAYRSRTYGYWGQGTQVTVSS quantity_measured="polyreactivity (PSR sort gate)" value_reported="high polyreactivity"
seq_text=QDQLVESGGGLVQAGGSLRLSCAASGSTFPFYAMGWDRQAPGKERELVAAITSGGSTYADSVKGRFTISRDNAKNTVYLQMNSLKPEDTAVYYCAAVGWFADCLFSDIKGYSWGQGTPVTVSS quantity_measured="polyreactivity (PSR sort gate)" value_reported="low polyreactivity"
seq_text=QVQLLESGGGLVQAGGSLRISCAASGIFDPNAMGWYIQAPGKERELVAAITSGGSTNYADSVKGRFTISRDNAKNTFYLQMNSLKPEDTAVYYCNEDYDRPDFYFWVQGTQVTVSS quantity_measured="polyreactivity (PSR sort gate)" value_reported="low polyreactivity"
seq_text=QVQLVESGGGLVQAGGSLRLSCAASGRTFTHYAMGWYRQAPGKERELVAAISWSGGRTYYADSVKGRFTISRDNAKNTVYLQMNSLKPEDTAVYYCAADAFRGFYWGQGTQVTVSS quantity_measured="polyreactivity (PSR sort gate)" value_reported="high polyreactivity"
seq_text=QVQLVESGGGLVQAGGRLRLSCAASGYIFGWNAMGWYRQAPGKERELVAAISSGGNTKYADSVKGRFTISRDNAKNTVYLQMNSLKPEDTAVYYCNADFRVYIPHVPYFVDFDYWGQGTQVTVSS quantity_measured="polyreactivity (PSR sort gate)" value_reported="low polyreactivity"
seq_text=QVQLVESGGGLVQAGGSLRLSCAASGITLDVNALGWYRQAPGKERELVADITWSDDSTYYADSVKGRFTISRDNAKNTVYLQMNSLKPEDTAVYYCAADVSVSFHPRGYDYWGQGTQVTVSS quantity_measured="polyreactivity (PSR sort gate)" value_reported="low polyreactivity"
seq_text=QVQLVESGGGLVQAGGSLRLSCAASGFTFRRYAMGWYRQAPGKERELVAAISYSGGSTNYADSVKGRFTISRDNAKNTVYLQMNSLKPEDTAVYYCATTSRAWGRGYDYWGQGTQVTVSS quantity_measured="polyreactivity (PSR sort gate)" value_reported="low polyreactivity"
seq_text=QVQLVESGGGLVQAGGSLRLSCAASGRIFSSNAMGWYRQAPGKEREFVAAISWRTGSTYYADSVKGRFTISRDNAKNTVYLQMNSLKPEDTAVYYCAAVYWTFWGTIATRYDYWGQGTQVTVSS quantity_measured="polyreactivity (PSR sort gate)" value_reported="high polyreactivity"
seq_text=QVQLVESGGGLVQAGGSLRLSCAASGRIFYWNAMGWYRQAPGKEREFVAAISWSGGSTYADSVKGRFTISRDNAKNTVYLQMNSLKPEDTAVYYCATRVSRSFRAYDYWGQGTQVTVSS quantity_measured="polyreactivity (PSR sort gate)" value_reported="high polyreactivity"
